Values from patent US20120258922A1

Tested on: human monocyte-derived macrophages (HMDM)
Assay: Macrophage-mediated LDL oxidation in HMDM (oxidized LDL by ELISA and/or TBARS)
Type: cell-based
Conditions: α-tocopherol alone; FIG. 5 experiment
Observed Property: pIC50
Reminder that pIC50 is minus the log10 of a molar concentration.

Prompt: Query (compound): Cc1c(C)c2c(c(C)c1O)CC[C@@](C)(CCC[C@H](C)CCC[C@H](C)CCCC(C)C)O2 [α-tocopherol] ; field requested: pIC50
Response: 4.27
